Source: ChEMBL document CHEMBL1138227

# measuredOn: Thymidine kinase (Human alphaherpesvirus 1, UniProt Q9QNF7)
# Sequence (Q9QNF7 whole entry): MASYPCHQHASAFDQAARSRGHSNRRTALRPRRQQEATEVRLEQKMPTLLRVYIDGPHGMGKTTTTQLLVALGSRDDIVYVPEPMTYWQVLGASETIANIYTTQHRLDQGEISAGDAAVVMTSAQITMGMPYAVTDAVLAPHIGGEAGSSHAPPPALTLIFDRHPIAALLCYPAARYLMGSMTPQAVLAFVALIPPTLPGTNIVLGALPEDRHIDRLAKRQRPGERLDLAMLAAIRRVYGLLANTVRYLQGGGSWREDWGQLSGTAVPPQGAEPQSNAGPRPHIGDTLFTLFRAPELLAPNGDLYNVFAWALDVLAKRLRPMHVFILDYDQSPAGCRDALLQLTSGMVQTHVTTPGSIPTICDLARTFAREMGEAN
Field: pIC50. Provide a value for each of the compounds that follow.
When answering, recall that pIC50 equals minus log10 of the concentration in mol/L, and write that number alone.

Quick check: pIC50 of Cc1cn(CCCCCCOC(c2ccccc2)(c2ccccc2)c2ccccc2)c(=O)[nH]c1=O ?
5.43

// returns reported pIC50 for input Cc1cn(CCOCCOC(c2ccccc2)(c2ccccc2)c2ccccc2)c(=O)[nH]c1=O
4.77

Sample Cc1cn(CCOCCOC(c2ccccc2)(c2ccccc2)c2ccc(Cl)cc2)c(=O)[nH]c1=O — what was its pIC50?
5.57

Would you mind telling me what pIC50 value was observed for CNC(=O)c1ccc(C(OCCCCCCn2cc(C)c(=O)[nH]c2=O)(c2ccccc2)c2ccccc2)cc1 ?
6.15

// query pIC50 value for entry Cc1cn(CCCCCCOC(c2ccccc2)(c2ccccc2)c2ccc(Cl)cc2)c(=O)[nH]c1=O
6.00

For the compound shown here, Cc1cn(CCOCCOC(c2ccccc2)(c2ccccc2)c2ccncc2)c(=O)[nH]c1=O , give the reported pIC50.
4.68

Give its pIC50 value. Item: CNC(=O)c1ccc(C(OC/C=C\Cn2cc(C)c(=O)[nH]c2=O)(c2ccccc2)c2ccccc2)cc1
4.38

pIC50 lookup needed for Cc1cn(C/C=C\COC(c2ccccc2)(c2ccccc2)c2ccc(Cl)cc2)c(=O)[nH]c1=O , thanks.
4.74

I'd like to know its pIC50. The compound in question is Cc1cn(CCCCCCOC(c2ccccc2)(c2ccccc2)c2ccncc2)c(=O)[nH]c1=O
5.70

Item Cc1cn(CCCCCOC(c2ccccc2)(c2ccccc2)c2ccccc2)c(=O)[nH]c1=O has what recorded pIC50?
4.49

Dear colleague, I am looking for the recorded pIC50 of the following compound: Cc1cn(C/C=C\COC(c2ccccc2)(c2ccccc2)c2ccncc2)c(=O)[nH]c1=O
4.60

If you can, please state the reported pIC50 value of Cc1cn(CCCOC(c2ccccc2)(c2ccccc2)c2ccccc2)c(=O)[nH]c1=O .
4.34

I have this compound here, Cc1cn(CCCCCCOC(c2ccccc2)(c2ccccc2)c2cc[n+](C)cc2)c(=O)[nH]c1=O , and I need its recorded pIC50.
4.39
